assay_name: Metabolic stability, pooled human liver microsome incubations
reported_conditions: pHLM 0.5 mg mL^−1, 0.5 µM, NADPH, 37 °C, n ≥ 3 ± SD
recorded_endpoint: T1/2 (min)

[
  {
    "compound": "CC(C)[C@@H](NC(=O)c1nn(Cc2ccc(F)cc2)c2ccccc12)C(N)=O [(R)-AB-FUBINACA (8)]",
    "unit_abbreviation": "min",
    "measured_result": 145
  },
  {
    "compound": "COC(=O)[C@H](NC(=O)c1nn(CCCCCF)c2ccccc12)C(C)(C)C [(R)-5F-MDMB-PINACA (2)]",
    "unit_abbreviation": "min",
    "measured_result": 8.0
  },
  {
    "compound": "COC(=O)[C@H](NC(=O)c1cn(CCCCCF)c2ccccc12)C(C)(C)C [(R)-5F-MDMB-PICA (3)]",
    "unit_abbreviation": "min",
    "measured_result": 11
  },
  {
    "compound": "CC(C)[C@@H](NC(=O)c1nn(CC2CCCCC2)c2ccccc12)C(N)=O [(R)-AB-[…] (11)]",
    "unit_abbreviation": "min",
    "measured_result": 43
  },
  {
    "compound": "C=CCCCn1cc(C(=O)N[C@@H](C(=O)OC)C(C)(C)C)c2ccccc21 [(R)-MDMB-4en-PICA (12)]",
    "unit_abbreviation": "min",
    "measured_result": 5.4
  },
  {
    "compound": "COC(=O)[C@H](NC(=O)c1nn(CCCCF)c2ccccc12)C(C)(C)C [(R)-4F-MDMB-BINACA (4)]",
    "unit_abbreviation": "min",
    "measured_result": 14
  }
]

----------
assay_name: Metabolic stability, pooled human liver microsome incubations
reported_conditions: pHLM, 15 min
Output true for records whose % parent compound remaining, Average is lower than 30%, false for records at or above 30%.

[
  {
    "compound": "COC(=O)[C@H](NC(=O)c1cn(CCCCCF)c2ccccc12)C(C)(C)C [(R)-5F-MDMB-PICA (3)]",
    "discrete_label": "false"
  },
  {
    "compound": "C=CCCCn1cc(C(=O)N[C@@H](C(=O)OC)C(C)C)c2ccccc21 [(R)-AMB-4en-PICA (7)]",
    "discrete_label": "true"
  },
  {
    "compound": "COC(=O)[C@H](NC(=O)c1nn(CCCCCF)c2ccccc12)C(C)(C)C [(R)-5F-MDMB-PINACA (2)]",
    "discrete_label": "true"
  },
  {
    "compound": "C=CCCCn1nc(C(=O)N[C@@H](C(=O)OC)C(C)(C)C)c2ccccc21 [(R)-MDMB-4en-PINACA (5)]",
    "discrete_label": "true"
  },
  {
    "compound": "COC(=O)C(NC(=O)c1nn(CCCCCF)c2ccccc12)C(C)C (stereo in doubt) [(R)-5F-AMB-PINACA (10)]",
    "discrete_label": "true"
  },
  {
    "compound": "COC(=O)[C@@H](NC(=O)c1nn(Cc2ccc(F)cc2)c2ccccc12)C(C)(C)C [(S)-MDMB-FUBINACA (6)]",
    "discrete_label": "false"
  },
  {
    "compound": "COC(=O)[C@@H](NC(=O)c1nn(CCCCF)c2ccccc12)C(C)(C)C [(S)-4F-MDMB-BINACA (4)]",
    "discrete_label": "false"
  }
]
